This section presents compounds with their documented pIC50 values.
Biological target: PIK3CB (Human) (UniProt P42338)
Sequence (P42338 whole entry, looked up): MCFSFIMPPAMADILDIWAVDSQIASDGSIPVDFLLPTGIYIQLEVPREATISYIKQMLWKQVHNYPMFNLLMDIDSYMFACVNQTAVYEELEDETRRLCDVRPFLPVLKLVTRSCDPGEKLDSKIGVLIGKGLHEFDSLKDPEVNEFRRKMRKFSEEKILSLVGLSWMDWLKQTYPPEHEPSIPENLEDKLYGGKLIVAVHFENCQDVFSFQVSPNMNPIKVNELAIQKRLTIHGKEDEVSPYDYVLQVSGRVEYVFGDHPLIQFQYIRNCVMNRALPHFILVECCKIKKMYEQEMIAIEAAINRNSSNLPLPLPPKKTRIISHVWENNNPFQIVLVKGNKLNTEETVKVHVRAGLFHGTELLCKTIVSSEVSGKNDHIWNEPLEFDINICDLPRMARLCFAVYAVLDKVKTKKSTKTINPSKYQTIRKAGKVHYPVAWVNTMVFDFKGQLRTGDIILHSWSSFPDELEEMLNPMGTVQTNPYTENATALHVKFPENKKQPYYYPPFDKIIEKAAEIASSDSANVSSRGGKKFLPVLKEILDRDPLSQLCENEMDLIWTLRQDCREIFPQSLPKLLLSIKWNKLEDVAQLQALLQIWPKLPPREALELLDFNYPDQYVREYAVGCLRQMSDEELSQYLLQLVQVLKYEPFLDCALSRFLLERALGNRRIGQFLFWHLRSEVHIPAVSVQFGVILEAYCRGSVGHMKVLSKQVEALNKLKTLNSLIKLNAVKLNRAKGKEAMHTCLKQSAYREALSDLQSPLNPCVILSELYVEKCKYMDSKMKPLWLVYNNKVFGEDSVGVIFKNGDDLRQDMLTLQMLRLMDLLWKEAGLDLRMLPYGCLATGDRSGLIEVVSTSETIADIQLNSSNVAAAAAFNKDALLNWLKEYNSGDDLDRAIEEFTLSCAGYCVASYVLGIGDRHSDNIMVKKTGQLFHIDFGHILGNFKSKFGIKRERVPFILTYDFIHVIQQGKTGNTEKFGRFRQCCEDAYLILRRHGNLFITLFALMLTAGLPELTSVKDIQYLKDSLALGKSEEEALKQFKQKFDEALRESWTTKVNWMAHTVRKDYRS
Test: Assessment of PIK3CB Kinase Activity
pIC50: −log10 of the molar value.

COc1cncc(-c2cccc3cc([C@H](C)Nc4nc(N)ncc4C#N)n(-c4ccccc4)c(=O)c23)c1    6.00 to 7.00
COc1cc(-c2cccc3cc([C@H](C)Nc4nc(N)ncc4C(=O)N(C)C)n(-c4ccccc4)c(=O)c23)ccn1    < 5.00
C[C@H](Nc1nc(N)ncc1C#N)c1cc2cccc(Cl)c2c(=O)n1-c1cccc(C#N)c1    6.00 to 7.00
C[C@H](Nc1nc(N)ncc1-c1cccc(S(=O)(=O)N2CCCCC2)c1)c1cc2cccc(Cl)c2c(=O)n1-c1ccccc1    6.00 to 7.00
C[C@H](Nc1nc(N)ncc1-c1csc(S(C)(=O)=O)n1)c1cc2cccc(Cl)c2c(=O)n1-c1ccccc1    > 7.00

Consider the record given below.
Observed pIC50 on PIK3CB (Human) (UniProt P42338) for CCS(=O)(=O)c1cccc(-c2cnc(N)nc2N[C@@H](C)c2cc3cccc(Cl)c3c(=O)n2-c2ccccc2)c1 , please. 6.00 to 7.00

---

Molecular target: UniProtKB P42336
Sequence (P42336 whole entry, looked up): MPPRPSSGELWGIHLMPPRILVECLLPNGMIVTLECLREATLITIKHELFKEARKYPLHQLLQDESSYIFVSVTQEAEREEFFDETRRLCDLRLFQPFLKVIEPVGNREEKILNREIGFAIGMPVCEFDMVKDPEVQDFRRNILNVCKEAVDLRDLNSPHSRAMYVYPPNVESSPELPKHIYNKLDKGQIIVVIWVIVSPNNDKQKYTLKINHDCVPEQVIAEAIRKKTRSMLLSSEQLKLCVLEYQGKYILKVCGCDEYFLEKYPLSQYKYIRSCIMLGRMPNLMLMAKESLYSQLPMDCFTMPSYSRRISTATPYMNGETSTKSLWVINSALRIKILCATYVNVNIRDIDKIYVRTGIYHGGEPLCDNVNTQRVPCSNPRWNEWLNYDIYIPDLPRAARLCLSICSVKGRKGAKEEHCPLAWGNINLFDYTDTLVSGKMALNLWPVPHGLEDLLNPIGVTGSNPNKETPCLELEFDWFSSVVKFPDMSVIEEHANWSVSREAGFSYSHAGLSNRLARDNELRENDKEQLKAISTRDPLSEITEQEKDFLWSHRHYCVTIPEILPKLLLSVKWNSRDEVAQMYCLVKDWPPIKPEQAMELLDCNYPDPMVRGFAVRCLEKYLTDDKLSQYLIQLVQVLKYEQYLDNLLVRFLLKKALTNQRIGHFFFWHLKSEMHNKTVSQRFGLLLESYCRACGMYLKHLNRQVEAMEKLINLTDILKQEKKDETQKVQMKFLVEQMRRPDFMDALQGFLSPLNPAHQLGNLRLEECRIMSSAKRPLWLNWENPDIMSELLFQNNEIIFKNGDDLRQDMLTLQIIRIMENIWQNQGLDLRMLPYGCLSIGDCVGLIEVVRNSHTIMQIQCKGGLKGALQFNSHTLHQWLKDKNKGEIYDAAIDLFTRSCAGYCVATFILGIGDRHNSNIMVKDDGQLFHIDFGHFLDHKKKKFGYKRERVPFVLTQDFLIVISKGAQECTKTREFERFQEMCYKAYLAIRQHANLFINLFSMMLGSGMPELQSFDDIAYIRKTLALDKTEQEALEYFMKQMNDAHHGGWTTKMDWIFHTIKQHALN
Assay: Assessment of PIK3CA Kinase Activity
Reported Metric: IC50

C[C@H](Nc1nc(Cl)ncc1[N+](=O)[O-])c1cc2cccc(Cl)c2c(=O)n1-c1ccccc1    > 10 µM
Cc1cncc(-c2cccc3cc([C@H](C)Nc4nc(N)ncc4C#N)n(-c4cccc(F)c4)c(=O)c23)c1    0.1 to 1 µM
COc1cncc(-c2cccc3cc([C@H](C)Nc4nc(N)ncc4C#N)n(-c4ccccc4)c(=O)c23)n1    > 10 µM
C[C@H](Nc1nc(N)ncc1C#N)c1cc2cccc(Cl)c2c(=O)n1-c1cccnc1    > 10 µM
COc1cccc(-c2cccc3cc([C@H](C)Nc4nc(N)ncc4C#N)n(-c4ccccc4)c(=O)c23)n1    > 10 µM

Observed IC50 on UniProtKB P42336 for C[C@H](Nc1nc(N)ncc1-c1ccc(S(C)(=O)=O)nc1)c1cc2cccc(Cl)c2c(=O)n1-c1ccccc1 , please. > 10 µM

Observed IC50 on UniProtKB P42336 for C[C@H](Nc1ncnc(N)c1C#N)c1cc2cccc(Cl)c2c(=O)n1-c1ccon1 , please. > 10 µM

Observed IC50 on UniProtKB P42336 for COc1nc(-c2cnc(N)nc2N[C@@H](C)c2cc3cccc(Cl)c3c(=O)n2-c2ccccc2)cs1 , please. 0.1 to 1 µM

---

This section presents compounds with their documented pIC50 values.
Target: PIK3CG (human)
pIC50: −log10 of the molar value.

COc1cc(-c2cccc3cc([C@H](C)Nc4nc(N)ncc4-c4cccnc4)n(-c4ccccc4)c(=O)c23)ccn1    6.00 to 7.00
COc1ncc(-c2cccc3cc([C@H](C)Nc4nc(N)ncc4C#N)n(C(C)C)c(=O)c23)cn1    6.00 to 7.00
C[C@H](Nc1nc(N)ncc1C#N)c1cc2cccc(-c3cccc(S(N)(=O)=O)c3)c2c(=O)n1-c1ccccc1    > 7.00
C[C@H](Nc1nc(N)ncc1-c1cccc(S(=O)(=O)C2CC2)c1)c1cc2cccc(Cl)c2c(=O)n1-c1ccccc1    > 7.00
Cc1cccc(-c2cccc3cc([C@H](C)Nc4nc(N)ncc4C#N)n(-c4ccccc4)c(=O)c23)c1    > 7.00
C[C@H](Nc1nc(N)ncc1C#N)c1nc2cccc(-c3cnn(C)c3)c2c(=O)n1-c1ccccc1    > 7.00
C[C@H](Nc1nc(N)ncc1C#N)c1cc2cccc(O)c2c(=O)n1-c1ccccc1    > 7.00

Consider the record given below.
Any idea what its pIC50 is? The compound is C[C@H](Nc1nc(N)ncc1C#N)c1cc2cccc(Cl)c2c(=O)n1C 6.00 to 7.00

---

Target: PIK3CB (Human)
Test: Assessment of PIK3CB Kinase Activity
pIC50: −log10 of the molar value.
This section presents molecules with their documented pIC50 values.

COc1cc(-c2cccc3cc([C@H](C)Nc4nc(N)ncc4C#N)n(C4CC4)c(=O)c23)ccn1    > 7.00
C[C@H](Nc1nc(N)ncc1C#N)c1cc2cccc(C#CCCC(=O)N3CCOCC3)c2c(=O)n1-c1ccccc1    6.00 to 7.00
COc1cc(-c2cccc3cc([C@H](C)N)n(-c4ccccc4)c(=O)c23)cnc1C    6.00 to 7.00
CNc1cc(-c2cccc3cc([C@H](C)Nc4nc(N)ncc4C#N)n(-c4ccccc4)c(=O)c23)ccn1    < 5.00
C[C@H](Nc1nc(N)ncc1C#N)c1cc2cccc(-c3cccc(S(C)(=O)=O)c3)c2c(=O)n1-c1ccccc1    < 5.00
CCOc1ncc(-c2cnc(N)nc2N[C@@H](C)c2cc3cccc(Cl)c3c(=O)n2-c2ccccc2)s1    6.00 to 7.00
COc1ncc(-c2cccc3cc([C@H](C)Nc4nc(N)ncc4C#N)n(-c4cccc(F)c4)c(=O)c23)cn1    < 5.00
C[C@H](Nc1nc(N)ncc1-c1cccc(S(N)(=O)=O)c1)c1cc2cccc(Cl)c2c(=O)n1-c1ccccc1    < 5.00
C[C@H](Nc1cc(Cl)ncn1)c1cc2cccc(Cl)c2c(=O)n1-c1ccccc1    < 5.00
COc1ccc(-c2cccc3cc([C@H](C)Nc4nc(N)ncc4C#N)n(C4CC4)c(=O)c23)cn1    6.00 to 7.00

Any idea what its pIC50 is? The molecule is C[C@H](Nc1nc(N)ncc1C#N)c1cc2cccc(Cl)c2c(=O)n1C 6.00 to 7.00

Any idea what its pIC50 is? The molecule is COc1ncc(-c2cccc3cc([C@H](C)Nc4ncnc(N)c4C#N)n(-c4ccccc4)c(=O)c23)cn1 < 5.00

Any idea what its pIC50 is? The molecule is C[C@H](Nc1nc(N)ncc1C#N)c1cc2cccc(-c3ccnnc3)c2c(=O)n1C1CC1 6.00 to 7.00

Any idea what its pIC50 is? The molecule is CC#Cc1cccc2cc([C@H](C)Nc3nc(N)ncc3C#N)n(-c3ccccc3)c(=O)c12 6.00 to 7.00

Any idea what its pIC50 is? The molecule is C[C@H](Nc1nc(N)ncc1C#N)c1cc2cccc(-c3ccn(C)c(=O)c3)c2c(=O)n1-c1ccccc1 < 5.00

Any idea what its pIC50 is? The molecule is CNC(=O)c1cnc(N)nc1N[C@@H](C)c1cc2cccc(-c3ccnc(OC)c3)c2c(=O)n1-c1ccccc1 6.00 to 7.00

Any idea what its pIC50 is? The molecule is C[C@H](Nc1nc(N)ncc1C#N)c1cc2cccc(-c3ccnc(O)c3)c2c(=O)n1-c1ccccc1 < 5.00

Any idea what its pIC50 is? The molecule is C[C@H](Nc1nc(N)ncc1C#N)c1cc2cccc(-c3ccnnc3)c2c(=O)n1-c1ccccc1 < 5.00

Any idea what its pIC50 is? The molecule is Cc1cc(N[C@@H](C)c2cc3cccc(Cl)c3c(=O)n2-c2ccccc2)nc(N)n1 < 5.00

Any idea what its pIC50 is? The molecule is C[C@H](Nc1nc(N)ncc1-c1cncs1)c1cc2cccc(Cl)c2c(=O)n1-c1ccccc1 6.00 to 7.00

Any idea what its pIC50 is? The molecule is C[C@H](Nc1nc(N)ncc1-c1cccc(NS(=O)(=O)N(C)C)c1)c1cc2cccc(Cl)c2c(=O)n1-c1ccccc1 6.00 to 7.00

Any idea what its pIC50 is? The molecule is COc1cc(-c2cccc3cc([C@H](C)Nc4nc(N)ncc4-c4ccc(F)c(O)c4)n(-c4ccccc4)c(=O)c23)ccn1 < 5.00

Any idea what its pIC50 is? The molecule is C[C@H](Nc1nc(N)ncc1C#N)c1cc2cccc(Cl)c2c(=O)n1-c1cccnc1 6.00 to 7.00

Any idea what its pIC50 is? The molecule is C[C@H](Nc1nc(N)ncc1C#N)c1cc2cccc(Cl)c2c(=O)n1-c1ccc(F)cc1F 6.00 to 7.00

---

Target: PIK3CB (Human) (UniProt P42338)
Test: Assessment of PIK3CB Kinase Activity
Reported Metric: IC50

C[C@H](Nc1nc(N)ncc1-c1ncco1)c1cc2cccc(Cl)c2c(=O)n1-c1ccccc1    100 to 1000 nM
CSc1ncc(-c2cnc(N)nc2N[C@@H](C)c2cc3cccc(Cl)c3c(=O)n2-c2ccccc2)s1    100 to 1000 nM
C[C@H](Nc1nc(N)ncc1C#N)c1cc2cccc(-c3cncc(N(C)C)c3)c2c(=O)n1-c1ccccc1    > 10000 nM
Cc1ccc(-c2cccc3cc([C@H](C)Nc4nc(N)ncc4C#N)n(-c4ccccc4)c(=O)c23)cc1    100 to 1000 nM

Any idea what its IC50 is? The compound is C[C@H](Nc1nc(N)ncc1C#N)c1cc2cccc(-c3cccc(F)c3)c2c(=O)n1-c1ccccc1 100 to 1000 nM

Any idea what its IC50 is? The compound is COc1ncc(-c2cccc3nc([C@H](C)Nc4nc(N)ncc4C#N)n(-c4ccccc4)c(=O)c23)cn1 > 10000 nM

Any idea what its IC50 is? The compound is C[C@H](Nc1nc(N)ncc1C#N)c1cc2cccc(-c3cnc4[nH]ccc4c3)c2c(=O)n1-c1cccc(F)c1 100 to 1000 nM

Any idea what its IC50 is? The compound is CNS(=O)(=O)c1cccc(-c2cnc(N)nc2N[C@@H](C)c2cc3cccc(Cl)c3c(=O)n2-c2ccccc2)c1 100 to 1000 nM
